assay target: human HDAC7 enzyme (Homo sapiens)
Construct: purchased Reaction Biology Corp
assay: Human HDAC7 enzyme assay (Class IIa HDACs)
Type: biochemical
cond: Table 8; recombinant human HDAC7
Consider the following molecules; for each one, report its IC50.
One number for each entry, in nM.

Cc1ccccc1-c1cc(CNC(=O)Nc2cccc3cccnc23)ccc1C(=O)NO: 125
Cc1cc(F)ccc1-c1cc(Cn2c(C)nc3ccccc3c2=O)ccc1C(=O)NO: 12

Now for the molecule whose IC50 we want.
Form: molecule = CC1C(=O)N(C2CCCCC2)C(=O)N1Cc1ccc(C(=O)NO)c(-c2ccccc2)c1 (stereo not shown) ; IC50 = 100

###

assay target: human HDAC1 enzyme (Homo sapiens, UniProt Q13547)
Construct: purchased BPS Bioscience
Sequence (Q13547 whole entry): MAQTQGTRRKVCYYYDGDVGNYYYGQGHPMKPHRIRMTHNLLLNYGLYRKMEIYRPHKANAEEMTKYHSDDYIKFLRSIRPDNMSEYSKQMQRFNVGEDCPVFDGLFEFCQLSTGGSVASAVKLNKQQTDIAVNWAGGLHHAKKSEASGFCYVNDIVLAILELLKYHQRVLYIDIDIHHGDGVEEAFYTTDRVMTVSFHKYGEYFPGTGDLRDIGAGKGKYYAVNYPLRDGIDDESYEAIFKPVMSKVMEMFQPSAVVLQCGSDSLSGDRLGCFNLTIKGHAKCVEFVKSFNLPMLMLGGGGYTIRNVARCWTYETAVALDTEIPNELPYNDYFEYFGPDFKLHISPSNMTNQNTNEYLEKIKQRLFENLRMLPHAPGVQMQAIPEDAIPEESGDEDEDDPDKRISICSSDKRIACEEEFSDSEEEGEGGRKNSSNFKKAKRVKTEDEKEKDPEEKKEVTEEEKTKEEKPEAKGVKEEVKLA
assay: Human HDAC1 enzyme assay (Class I HDACs)
Assay type: biochemical
cond: Table 8; recombinant human HDAC1; read-out: IC50 (nM) (HDAC1)
attribute measured: IC50 (nM)
One number for each entry, in nM.

O=C(NO)c1ccc(CN2C(=O)c3cccnc3C2=O)cc1-c1ccccc1 [Example 53]: 28000
O=C(NO)c1ccc(CN2C(=O)c3ccccc3C2=O)cc1-c1ccccc1 [Example 36]: 32000
O=C(NO)c1ccc(CN2C(=O)c3ccccc3S2(=O)=O)cc1-c1ccccc1 [Example 56]: 4900

Each compound below has a reported value. Please supply its IC50.
1. O=C(NO)c1ccc(CN2Cc3ccccc3C2=O)cc1-c1ccccc1 [Example 49]
2. O=C(NCc1ccc(C(=O)NO)c(-c2ccccc2)c1)c1ccccc1F [Example 50]

Result:
[33000, 16000]

Each compound below has a reported value. Please supply its IC50.
1. O=C(NO)c1ccc(Cn2cnc3ccccc3c2=O)cc1-c1ccccc1 [Example 34]
2. O=C(NCc1ccc(C(=O)NO)c(-c2ccccc2)c1)Nc1cccc2cccnc12 [Example 2]

Result:
1. 3190
2. 2360

###

assay target: human HDAC7 enzyme (Homo sapiens, UniProt Q8WUI4)
Construct: purchased Reaction Biology Corp
Sequence (Q8WUI4 whole entry): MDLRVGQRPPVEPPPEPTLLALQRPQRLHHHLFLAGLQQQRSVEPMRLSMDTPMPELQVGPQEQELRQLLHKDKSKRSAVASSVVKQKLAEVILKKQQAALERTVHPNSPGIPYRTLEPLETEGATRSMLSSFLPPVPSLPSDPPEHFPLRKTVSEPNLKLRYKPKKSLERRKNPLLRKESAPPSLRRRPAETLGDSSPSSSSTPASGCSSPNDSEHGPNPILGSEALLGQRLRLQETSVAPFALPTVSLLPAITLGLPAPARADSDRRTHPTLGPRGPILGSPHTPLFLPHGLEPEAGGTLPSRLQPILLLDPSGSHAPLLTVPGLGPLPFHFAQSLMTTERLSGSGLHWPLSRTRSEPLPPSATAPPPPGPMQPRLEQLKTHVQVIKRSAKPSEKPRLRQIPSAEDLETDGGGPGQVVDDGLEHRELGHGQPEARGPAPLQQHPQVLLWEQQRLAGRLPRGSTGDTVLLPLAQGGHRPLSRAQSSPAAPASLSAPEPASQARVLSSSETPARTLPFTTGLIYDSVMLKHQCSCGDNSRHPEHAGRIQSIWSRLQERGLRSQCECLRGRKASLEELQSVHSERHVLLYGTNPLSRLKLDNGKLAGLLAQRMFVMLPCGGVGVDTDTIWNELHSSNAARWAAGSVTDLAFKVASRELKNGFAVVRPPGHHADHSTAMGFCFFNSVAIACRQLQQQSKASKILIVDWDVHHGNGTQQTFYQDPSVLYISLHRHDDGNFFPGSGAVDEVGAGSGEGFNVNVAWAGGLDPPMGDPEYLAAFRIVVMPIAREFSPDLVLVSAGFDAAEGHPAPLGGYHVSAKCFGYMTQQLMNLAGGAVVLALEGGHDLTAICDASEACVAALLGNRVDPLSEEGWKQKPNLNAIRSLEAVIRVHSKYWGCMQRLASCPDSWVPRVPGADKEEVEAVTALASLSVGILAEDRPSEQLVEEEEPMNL
assay: Human HDAC7 enzyme assay (Class IIa HDACs)
Assay type: biochemical
cond: Table 8; recombinant human HDAC7
Consider the following molecules; for each one, report its IC50.
One number for each entry, in nM.

Each molecule below has a reported value. Please supply its IC50.
1. O=C(NCc1ccc(C(=O)NO)c(-c2ccccc2)c1)c1ccccc1
2. O=C(NO)c1ccc(C(n2cc(-c3ccccc3)nn2)n2cc(-c3ccccc3)nn2)cc1-c1ccccc1
3. O=C(NO)c1c(F)cc(CN2C(=O)c3ccccc3S2(=O)=O)cc1-c1ccccc1 [Example 57b]

Result:
[123, 5, 582]

Each molecule below has a reported value. Please supply its IC50.
1. CC(=O)Nc1ccc(C(=O)NCc2ccc(C(=O)NO)c(-c3ccccc3)c2)cc1
2. O=C(NO)c1ccc(Nc2cc(F)cc(F)c2)cc1-c1ccccc1

Result:
1. 101
2. 206

Each molecule below has a reported value. Please supply its IC50.
1. NC(=O)c1ccc(Nc2ccc(C(=O)NO)c(-c3ccccc3)c2)cc1
2. O=C(NO)c1ccc(Nc2ccc(F)cc2)cc1-c1ccccc1
3. Cc1nc2ccccc2c(=O)n1Cc1ccc(C(=O)NO)c(C2CC2)c1

Result:
1: 43; 2: 88; 3: 8660

###

assay target: HDAC9 (Homo sapiens)
Sequence (Q9UKV0 whole entry, canonical isoform): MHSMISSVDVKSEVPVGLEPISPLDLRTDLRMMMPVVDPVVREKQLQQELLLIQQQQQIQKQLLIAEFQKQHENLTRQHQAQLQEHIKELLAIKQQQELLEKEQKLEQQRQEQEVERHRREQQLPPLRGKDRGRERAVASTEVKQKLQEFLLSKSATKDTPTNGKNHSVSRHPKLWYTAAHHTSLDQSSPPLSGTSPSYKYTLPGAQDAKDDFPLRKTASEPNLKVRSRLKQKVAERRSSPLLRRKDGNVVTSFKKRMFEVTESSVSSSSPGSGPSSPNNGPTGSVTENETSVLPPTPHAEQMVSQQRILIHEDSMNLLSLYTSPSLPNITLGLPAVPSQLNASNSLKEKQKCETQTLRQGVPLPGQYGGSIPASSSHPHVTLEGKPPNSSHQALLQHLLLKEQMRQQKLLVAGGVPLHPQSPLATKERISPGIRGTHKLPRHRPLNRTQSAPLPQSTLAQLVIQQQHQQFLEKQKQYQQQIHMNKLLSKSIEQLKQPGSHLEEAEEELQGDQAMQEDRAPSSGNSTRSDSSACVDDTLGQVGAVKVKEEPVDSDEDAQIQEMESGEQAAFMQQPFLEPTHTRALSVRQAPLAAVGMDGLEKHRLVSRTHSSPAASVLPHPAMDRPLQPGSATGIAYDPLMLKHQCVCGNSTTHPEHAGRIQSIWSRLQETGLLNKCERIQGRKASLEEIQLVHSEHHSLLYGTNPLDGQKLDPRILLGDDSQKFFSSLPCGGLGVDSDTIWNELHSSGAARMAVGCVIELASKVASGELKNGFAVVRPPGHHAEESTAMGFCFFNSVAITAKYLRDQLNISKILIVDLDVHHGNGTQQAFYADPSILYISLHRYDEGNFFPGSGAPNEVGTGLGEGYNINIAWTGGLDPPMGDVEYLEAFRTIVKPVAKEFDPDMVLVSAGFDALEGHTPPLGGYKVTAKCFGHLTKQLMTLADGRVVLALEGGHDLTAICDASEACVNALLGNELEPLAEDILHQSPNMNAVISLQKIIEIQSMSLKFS
assay: Isoform selectivity, HDAC9 inhibition
cond: Table 9; recombinant human HDAC; read-out: IC50, Class IIa HDAC9
attribute measured: pIC50
Answers are plain numbers, as −log10 of the molar value.

As a guide, the following entries are already answered.
Cc1nc2ccccc2c(=O)n1Cc1ccc(C(=O)NO)c(-c2ccccc2)c1 [compound 12]: 7.77
O=C(NO)c1ccc(CN2C(=O)c3cccc(F)c3C2=O)cc1-c1ccccc1 [Example 55]: 6.74
O=C(NO)c1ccc(CN2C(=O)c3ccccc3C2=O)cc1-c1ccccc1 [Example 36]: 6.88
Cc1nc2ccccc2c(=O)n1Cc1ccc(C(=O)NO)c(-c2ccc(F)cc2)c1 [Example 14]: 7.82

Now for the molecule whose pIC50 we want.
Form: molecule = O=C(NO)c1ccc(CN2C(=O)c3ccccc3S2(=O)=O)cc1-c1ccccc1 [Example 56] ; pIC50 = 7.03

###

assay target: human HDAC1 enzyme (Homo sapiens)
Construct: purchased BPS Bioscience
assay: Human HDAC1 enzyme assay (Class I HDACs)
Format: biochemical
cond: Table 8; recombinant human HDAC1; read-out: IC50 (nM) (HDAC1)
attribute measured: IC50

O=C(NCc1ccc(C(=O)NO)c(-c2ccccc2)c1)c1ccc[nH]1: > 10000 nM
Cc1cc(=O)n(Cc2ccc(C(=O)NO)c(-c3ccccc3)c2)c(C)n1: > 10000 nM
O=C(NO)c1ccc(CN2C(=O)CCC2=O)cc1-c1ccccc1: > 20000 nM
O=C(NCc1ccc(C(=O)NO)c(-c2ccccc2)c1)c1cc2ccccc2[nH]1: > 10000 nM

Now for the compound whose IC50 we want.
Form: compound = O=C(NO)c1ccc(CN2C(=O)c3ccncc3C2=O)cc1-c1ccccc1 ; IC50 = > 20000 nM

###

assay target: human HDAC7 enzyme (Homo sapiens, UniProt Q8WUI4)
Construct: purchased Reaction Biology Corp
assay: Human HDAC7 enzyme assay (Class IIa HDACs)
Type: biochemical
cond: Table 8; recombinant human HDAC7
Consider the following compounds; for each one, report its log10(IC50).
Each number you see is log10 of IC50, and the unit inside the log is nM.

As a guide, the following entries are already answered.
O=C(NO)c1ccc(Oc2ccc(F)cc2)cc1-c1ccccc1: 2.24
O=C(NCc1ccc(C(=O)NO)c(-c2ccccc2)c1)c1cccnc1: 2.18

Each compound below has a reported value. Please supply its log10(IC50).
1. O=C(NCc1ccc(C(=O)NO)c(-c2ccccc2)c1)c1ccccc1NC(=O)C(F)(F)F
2. O=C(Cc1c[nH]c2ccccc12)NCc1ccc(C(=O)NO)c(-c2ccccc2)c1

Result:
2.97
2.38

###

assay target: human HDAC7 enzyme (Homo sapiens)
Construct: purchased Reaction Biology Corp
assay: Human HDAC7 enzyme assay (Class IIa HDACs)
Format: biochemical
cond: Table 8; recombinant human HDAC7
attribute measured: IC50 (nM)
Numbers only, in nM.

Each compound below has a reported value. Please supply its IC50.
1. NC(=O)c1ccc(C(=O)NCc2ccc(C(=O)NO)c(-c3ccccc3)c2)cc1 [Example 21]
2. O=C(NO)c1ccc(NC(=O)C2(c3ccc4ccccc4c3)CCOCC2)cc1-c1ccccc1 [Example 93]
3. Cc1ccc(C(=O)Nc2ccc(C(=O)NO)c(-c3ccccc3)c2)cc1 [Example 62]
4. O=C(NO)c1ccc(Nc2ccccn2)cc1-c1ccccc1 [Example 82]
5. O=C(NO)c1ccc(Nc2cc(F)c(F)c(F)c2)cc1-c1ccccc1 [Example 70]

Result:
1: 116; 2: 1590; 3: 431; 4: 249; 5: 649

Each compound below has a reported value. Please supply its IC50.
1. Cc1ccc(-c2cc(CNC(=O)Nc3cccc4cccnc34)ccc2C(=O)NO)cc1 [Example 11]
2. CC(=O)Nc1cccc(C(=O)NCc2ccc(C(=O)NO)c(-c3ccccc3)c2)c1 [Example 19]

Result:
1890
78

###

assay target: human HDAC7 enzyme (Homo sapiens, UniProt Q8WUI4)
Construct: purchased Reaction Biology Corp
assay: Human HDAC7 enzyme assay (Class IIa HDACs)
Assay type: biochemical
cond: Table 8; recombinant human HDAC7
attribute measured: IC50 (nM)
One number for each entry, in nM.

As a guide, the following entries are already answered.
O=C(NO)c1ccc(Nc2ccc(C(F)(F)F)cc2)cc1-c1ccccc1: 578
COc1ccc(C(=O)Nc2ccc(C(=O)NO)c(-c3ccccc3)c2)cc1: 323

Each compound below has a reported value. Please supply its IC50.
1. COC(=O)c1ccc(CNCc2ccc(C(=O)NO)c(-c3ccccc3)c2)cc1-c1ccccc1
2. O=C(NCc1ccc(C(=O)NO)c(-c2cccc(F)c2)c1)Nc1cccc2cccnc12
3. O=C(Nc1ccc(C(=O)NO)c(-c2ccccc2)c1)c1ccc(F)cc1
4. O=C(NCc1ccc(C(=O)NO)c(-c2ccccc2Cl)c1)Nc1cccc2cccnc12
5. O=C(NO)c1ccc(CNCc2ccccc2)cc1-c1ccccc1
6. O=C(NCc1ccc(C(=O)NO)c(-c2ccccc2)c1)Nc1ccccc1
7. CC(C)(C)OC(=O)c1ccc(Nc2ccc(C(=O)NO)c(-c3ccccc3)c2)cc1
8. CC1C(=O)NC(Cc2ccccc2)C(=O)N1Cc1ccc(C(=O)NO)c(-c2ccccc2)c1 (mixture of isomers)

Result:
[137, 64, 645, 178, 1470, 104, 54, 322]

Each compound below has a reported value. Please supply its IC50.
1. O=C(NO)c1ccc(CNC(=O)C2CCCN2)cc1-c1ccccc1 (stereo not shown)
2. O=C(NO)c1ccc(NC(=O)C2(c3ccc(Br)cc3)CCCC2)cc1-c1ccccc1
3. O=C(NO)c1ccc(Nc2ccc3ccccc3c2)cc1-c1ccccc1
4. CN(c1ccc(F)cc1)c1ccc(C(=O)NO)c(-c2ccccc2)c1

Result:
1: 960; 2: 1210; 3: 321; 4: 64

Each compound below has a reported value. Please supply its IC50.
1. O=C(NCc1ccc(C(=O)NO)c(-c2ccccc2F)c1)Nc1cccc2cccnc12
2. Nc1ccc(C(=O)NO)c(-c2ccccc2)c1

Result:
[152, 945]
